Give measured IC50 for each item. Keep answers brief.
Test system: DLD-1 BRCA2−/− cells
Assay: Homologous recombination synthetic lethal inhibition of proliferation, DLD-1 BRCA2-/- (Cell Titre Glo 3D)
Format: cell-based
Settings: Homo sapiens, DLD-1, first proliferation column (c5); DLD-1 BRCA2-/-; read-out: POLQ PD Prolif Lumin (converted)
# value in nM; strip the unit string

Ask: Consider the compound Cc1cnc(Cn2c(-c3cccc(OCCN4CC(O)C4)c3Cl)nc3c(OC4(C)CC4)ncnc32)s1 [Example T142] tested on DLD-1 BRCA2−/− cells; state its IC50.
Result: 1000

Ask: Please report the measured IC50 for Cc1ccnc(Cn2c(-c3ccc(OCCN4CCNC(=O)C4)cc3Cl)nc3c(OC4(C)CC4)ncnc32)c1 [Example T499] tested on DLD-1 BRCA2−/− cells.
Result: 316

Ask: Using DLD-1 BRCA2−/− cells as the test system, report measured IC50 of CC1(Oc2ncnc3c2nc(-c2ccc(OCCCN4CC[C@H](O)C4)cc2Cl)n3Cc2cc(Cl)ccn2)CC1 [Example T503] .
Result: 100

###

Tested on: DLD-1 BRCA2−/− cells
Experiment: Homologous recombination synthetic lethal inhibition of proliferation, DLD-1 BRCA2-/- (Cell Titre Glo 3D)
Format: cell-based
Conditions: Homo sapiens, DLD-1, 288 h, DLD-1 BRCA2−/−, 12 days, Cell Titre Glo 3D; read-out: POLQ PD Prolif Lumin BRCA2 −/− Mean pIC50 (converted)
For each entry below, report its IC50 value.
Kindly report the value followed by its unit.

Ask: # return recorded IC50 for input `Cc1ccnc(Cn2c(-c3ccc(OCCO)cc3Cl)nc3c(OC4(C)CC4)ncnc32)c1`
Result: 126 nM

Ask: Quick one: give measured IC50 for `CC(=O)N1CC(Oc2ccc(-c3nc4c(OC5(C)CC5)ncnc4n3Cc3cc(C)ccn3)c(Cl)c2)C1`
Result: 158 nM

Ask: Tell us which IC50 value is on record for COc1ccc(Cl)cc1Cn1c(-c2cccc(OC[C@@H](C)CC(=O)O)c2Cl)nc2c(OC3(C)CC3)ncnc21 (single isomer, unassigned; isomer 1)
Result: 6.31 nM

###

Tested on: DLD-1 BRCA2−/− cells
Assay: Homologous recombination synthetic lethal inhibition of proliferation, DLD-1 BRCA2-/- (Cell Titre Glo 3D)
Format: cell-based
Conditions: DLD-1 BRCA2−/− cells, 12 days
Text: This assay identifies anti-proliferative effects of POLQ compounds in the homologous recombination deficient colorectal cell line DLD-1 BRCA2−/− over 8-9 population doublings (7 days for DLD-1 and 12 days for DLD-1 BRCA2−/−). DLD1 BRCA2 wt are used as a control to detect cell toxic effects not specific to homologous recombination deficiency. […]
Quick rule for you: POLQ PD Prolif Lumin BRCA2 −/− mean pIC50 at 6 or higher means Condition met, lower means Condition not met.

Ask: Kindly determine if POLQ PD Prolif Lumin BRCA2 −/− mean pIC50 recorded for CC(c1cc(Cl)ccn1)n1c(-c2ccc(OCCN3CCNCC3)cc2Cl)nc2c(OC3(C)CC3)ncnc21 (single isomer, unassigned; isomer 1) [Example S6] is above or exactly 6.
Result: Condition met

Ask: Tell me whether POLQ PD Prolif Lumin BRCA2 −/− mean pIC50 is at least 6 here: CC(Cc1ccccn1)n1c(-c2ccc(OCCN3CCNCC3)cc2Cl)nc2c(OC3(C)CC3)ncnc21 (single isomer, unassigned) [Example S8]
Result: Condition not met

Ask: Reported POLQ PD Prolif Lumin BRCA2 −/− mean pIC50 reaches at least 6 for CC(C)Oc1ccc2c(c1)nc(-c1ccc(OCCC3CCCN3C)cc1Cl)n2Cc1ccccc1 (single isomer, unassigned) [Example A9] ?
Result: Condition met

Ask: Is the recorded value of POLQ PD Prolif Lumin BRCA2 −/− mean pIC50 equal to or greater than 6 for this molecule? CC1NCCN(CCOc2ccc(-c3nc4c(OC5(C)CC5)ncnc4n3Cc3ccccc3)c(Cl)c2)C1=O (single isomer, unassigned; isomer 2) [Example R14]
Result: Condition met

Ask: Does the reported POLQ PD Prolif Lumin BRCA2 −/− mean pIC50 for CN1CCCC(Oc2ccc(-c3nc4c(OC5(C)CC5)ncnc4n3Cc3ccccc3)c(Cl)c2)CC1 (single isomer, unassigned) [Example D14] fall at or above the 6 mark?
Result: Condition met

Ask: hey, is POLQ PD Prolif Lumin BRCA2 −/− mean pIC50 for this one >= 6? CN1CCCC1CCOc1ccc(-c2nc3c(OC4(C)CC4)ncnc3n2Cc2ccccc2)c(Cl)c1 (single isomer, unassigned) [Example D4]
Result: Condition met
